Each entry below carries its reported IC50.
Tested on: DU-145
Test: Antiproliferative activity against human DU145 cells measured after 72 hrs by EZ-Cytox assay
Assay type: functional, cell-based
Settings: DU-145, 72 h
Express it in nM; write the number only.

[[record]]
structure_smiles_string = "Oc1cccc(-c2cc(-c3cccc(Cl)c3)nc3c2Cc2cccc(O)c2-3)c1"
recorded_endpoint = "IC50"
observed = 3480

[[record]]
structure_smiles_string = "Oc1ccc2c(c1)-c1nc(-c3cccc(F)c3)cc(-c3ccccc3O)c1C2"
recorded_endpoint = "IC50"
observed = 860

[[record]]
structure_smiles_string = "Oc1ccccc1-c1cc(-c2cccc(Cl)c2)c2c(n1)-c1c(O)cccc1C2"
recorded_endpoint = "IC50"
observed = 2820


// switching to the query molecule
Lookup result for `Oc1ccc2c(c1)-c1nc(-c3cccc(Cl)c3)cc(-c3ccccc3O)c1C2` ; measured IC50: 320

---

Each entry below carries its reported pIC50.
Tested on: DU-145
Assay: Antiproliferative activity against human DU145 cells measured after 72 hrs by EZ-Cytox assay
Assay type: functional, cell-based
Details: DU-145, 72 h
Lab note — pIC50 values are minus log10 of concentrations in M.

Lookup result for `Oc1cccc(-c2cc(-c3ccc(Cl)cc3)c3c(n2)-c2c(O)cccc2C3)c1` ; measured pIC50: 5.39

Lookup result for `Oc1ccccc1-c1cc(-c2ccccc2C(F)(F)F)nc2c1Cc1cccc(O)c1-2` ; measured pIC50: 5.70

Lookup result for `Oc1ccc2c(c1)Cc1c(-c3ccccc3O)cc(-c3cccc(Cl)c3)nc1-2` ; measured pIC50: 6.44

---

Each entry below carries its reported inhibition.
Biological target: DNA topoisomerase 2-alpha (Homo sapiens)
Assay: Inhibition of recombinant human topoisomerase 2alpha-mediated relaxation of supercoiled pBR322 DNA at 100 uM measured after 30 mins by ethidium bromide staining based agarose gel electrophoresis relative to control

A selection of reference data follows.
[[record]]
structure_smiles_string = "Oc1ccc2c(c1)Cc1c(-c3ccc(Cl)cc3)cc(-c3ccccc3O)nc1-2"
recorded_endpoint = "inhibition"
observed = "70.8%"

[[record]]
structure_smiles_string = "Oc1ccc2c(c1)-c1nc(-c3ccccc3F)cc(-c3ccccc3O)c1C2"
recorded_endpoint = "inhibition"
observed = "27%"

[[record]]
structure_smiles_string = "Oc1cccc(-c2cc(-c3ccc(C(F)(F)F)cc3)nc3c2Cc2cccc(O)c2-3)c1"
recorded_endpoint = "inhibition"
observed = "100%"

[[record]]
structure_smiles_string = "Oc1ccc(-c2cc(-c3cccc(F)c3)nc3c2Cc2cc(O)ccc2-3)cc1"
recorded_endpoint = "inhibition"
observed = "4.5%"

[[record]]
structure_smiles_string = "Oc1cccc(-c2cc(-c3ccccc3F)nc3c2Cc2cc(O)ccc2-3)c1"
recorded_endpoint = "inhibition"
observed = "44.6%"


// switching to the query molecule
Lookup result for `Oc1ccc(-c2cc(-c3cccc(Cl)c3)c3c(n2)-c2c(O)cccc2C3)cc1` ; measured inhibition: 71.6%

---

Molecular target: DNA topoisomerase 2-alpha (Homo sapiens) (UniProt P11388)
Sequence (P11388 whole entry): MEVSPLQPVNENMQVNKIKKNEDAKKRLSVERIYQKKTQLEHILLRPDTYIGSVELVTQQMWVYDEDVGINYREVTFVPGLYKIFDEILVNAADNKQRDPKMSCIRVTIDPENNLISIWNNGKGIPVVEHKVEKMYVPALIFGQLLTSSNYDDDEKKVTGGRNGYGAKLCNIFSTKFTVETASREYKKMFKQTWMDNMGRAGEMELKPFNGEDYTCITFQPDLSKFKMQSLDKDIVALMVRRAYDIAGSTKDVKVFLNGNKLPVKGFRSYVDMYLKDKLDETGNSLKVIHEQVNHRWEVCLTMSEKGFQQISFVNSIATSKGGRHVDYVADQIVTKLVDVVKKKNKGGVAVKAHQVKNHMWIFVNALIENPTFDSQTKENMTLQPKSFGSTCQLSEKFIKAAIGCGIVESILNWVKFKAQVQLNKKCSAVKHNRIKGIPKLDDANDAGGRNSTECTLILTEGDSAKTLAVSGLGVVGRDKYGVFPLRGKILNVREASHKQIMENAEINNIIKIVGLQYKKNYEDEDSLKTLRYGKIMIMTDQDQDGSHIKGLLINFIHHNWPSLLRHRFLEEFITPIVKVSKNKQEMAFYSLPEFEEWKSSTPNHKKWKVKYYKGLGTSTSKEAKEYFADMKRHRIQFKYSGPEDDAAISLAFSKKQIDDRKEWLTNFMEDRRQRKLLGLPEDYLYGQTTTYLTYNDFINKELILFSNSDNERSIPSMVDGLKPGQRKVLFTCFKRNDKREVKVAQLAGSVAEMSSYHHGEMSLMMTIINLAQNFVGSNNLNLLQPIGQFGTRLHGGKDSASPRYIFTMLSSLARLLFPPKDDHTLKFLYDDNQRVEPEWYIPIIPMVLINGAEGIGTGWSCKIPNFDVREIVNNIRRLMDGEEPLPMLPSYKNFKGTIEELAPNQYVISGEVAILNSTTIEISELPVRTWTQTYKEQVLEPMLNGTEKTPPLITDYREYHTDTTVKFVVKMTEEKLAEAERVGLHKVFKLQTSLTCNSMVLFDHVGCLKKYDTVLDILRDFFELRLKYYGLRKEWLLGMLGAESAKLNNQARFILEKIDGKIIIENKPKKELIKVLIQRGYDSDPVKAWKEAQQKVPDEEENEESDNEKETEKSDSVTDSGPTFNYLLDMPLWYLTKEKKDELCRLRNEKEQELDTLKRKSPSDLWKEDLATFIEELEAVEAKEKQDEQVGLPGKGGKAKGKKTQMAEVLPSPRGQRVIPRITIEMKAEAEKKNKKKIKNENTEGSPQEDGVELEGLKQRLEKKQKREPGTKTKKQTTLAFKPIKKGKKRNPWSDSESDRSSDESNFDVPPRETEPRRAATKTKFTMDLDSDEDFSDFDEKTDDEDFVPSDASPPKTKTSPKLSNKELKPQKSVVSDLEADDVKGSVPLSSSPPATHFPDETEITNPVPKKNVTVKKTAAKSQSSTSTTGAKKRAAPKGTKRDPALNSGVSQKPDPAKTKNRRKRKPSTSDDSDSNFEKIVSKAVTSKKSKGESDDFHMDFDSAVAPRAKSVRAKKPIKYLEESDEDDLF
Assay: Inhibition of recombinant human topoisomerase 2alpha-mediated relaxation of supercoiled pBR322 DNA at 100 uM measured after 30 mins by ethidium bromide staining based agarose gel electrophoresis relative to control
Recorded Endpoint: inhibition (%)
Express it in %; write the number only.

A selection of reference data follows.
[[record]]
structure_smiles_string = "Oc1ccccc1-c1cc(-c2ccccc2Cl)nc2c1Cc1c(O)cccc1-2"
observed = 82

[[record]]
structure_smiles_string = "Oc1ccc(-c2cc(-c3cccc(C(F)(F)F)c3)nc3c2Cc2cc(O)ccc2-3)cc1"
observed = 88.7

[[record]]
structure_smiles_string = "Oc1ccccc1-c1cc(-c2ccccc2Cl)c2c(n1)-c1cccc(O)c1C2"
observed = 79.2

[[record]]
structure_smiles_string = "Oc1ccc(-c2cc(-c3ccc(Cl)cc3)c3c(n2)-c2cc(O)ccc2C3)cc1"
observed = 95.3

[[record]]
structure_smiles_string = "Oc1ccc(-c2cc(-c3ccccc3C(F)(F)F)nc3c2Cc2ccc(O)cc2-3)cc1"
observed = 81


// switching to the query compound
Lookup result for `Oc1ccc2c(c1)-c1nc(-c3ccccc3C(F)(F)F)cc(-c3ccccc3O)c1C2` ; measured inhibition: 86.1

---

Molecular target: DNA topoisomerase 1 (Homo sapiens) (UniProt P11387)
Sequence (whole entry): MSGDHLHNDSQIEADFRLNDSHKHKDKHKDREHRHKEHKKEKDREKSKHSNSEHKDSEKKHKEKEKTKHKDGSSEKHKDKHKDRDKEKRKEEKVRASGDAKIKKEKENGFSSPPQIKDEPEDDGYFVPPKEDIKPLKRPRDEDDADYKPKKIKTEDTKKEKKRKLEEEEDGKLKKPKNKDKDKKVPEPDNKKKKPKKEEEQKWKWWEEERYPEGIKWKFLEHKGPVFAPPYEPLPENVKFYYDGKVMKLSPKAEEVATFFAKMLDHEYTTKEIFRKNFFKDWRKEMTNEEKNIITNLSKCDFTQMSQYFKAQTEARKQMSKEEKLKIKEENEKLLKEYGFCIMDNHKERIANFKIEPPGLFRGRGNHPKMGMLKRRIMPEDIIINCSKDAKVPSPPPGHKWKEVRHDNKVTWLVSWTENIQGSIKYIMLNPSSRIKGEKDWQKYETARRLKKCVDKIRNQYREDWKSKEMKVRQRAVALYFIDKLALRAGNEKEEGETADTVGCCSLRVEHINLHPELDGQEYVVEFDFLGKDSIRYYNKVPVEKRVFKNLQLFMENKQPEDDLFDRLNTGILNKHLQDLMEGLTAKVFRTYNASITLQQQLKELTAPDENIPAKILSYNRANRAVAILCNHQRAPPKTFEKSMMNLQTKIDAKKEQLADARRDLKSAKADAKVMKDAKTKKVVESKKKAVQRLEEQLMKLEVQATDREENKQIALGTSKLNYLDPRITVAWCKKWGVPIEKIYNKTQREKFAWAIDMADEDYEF
Experiment: Inhibition of recombinant human topoisomerase 1-mediated relaxation of supercoiled pBR322 DNA at 100 uM measured after 30 mins by ethidium bromide staining based agarose gel electrophoresis relative to control
Recorded Endpoint: inhibition (%)
Express it in %; write the number only.

A selection of reference data follows.
[[record]]
structure_smiles_string = "Oc1ccccc1-c1cc(-c2ccc(F)cc2)nc2c1Cc1cccc(O)c1-2"
recorded_endpoint = "inhibition"
unit_of_measurement = "%"
observed = 0

[[record]]
structure_smiles_string = "Oc1ccc(-c2cc(-c3ccccc3)c3c(n2)-c2cc(O)ccc2C3)cc1"
recorded_endpoint = "inhibition"
unit_of_measurement = "%"
observed = 20.9

[[record]]
structure_smiles_string = "Oc1cccc(-c2cc(-c3cccc(Cl)c3)c3c(n2)-c2cccc(O)c2C3)c1"
recorded_endpoint = "inhibition"
unit_of_measurement = "%"
observed = 7.4

[[record]]
structure_smiles_string = "Oc1ccc(-c2cc(-c3ccccc3Cl)c3c(n2)-c2ccc(O)cc2C3)cc1"
recorded_endpoint = "inhibition"
unit_of_measurement = "%"
observed = 11.9

[[record]]
structure_smiles_string = "Oc1ccc2c(c1)Cc1c(-c3ccc(Cl)cc3)cc(-c3ccccc3O)nc1-2"
recorded_endpoint = "inhibition"
unit_of_measurement = "%"
observed = 21.4


Let me check: `Oc1ccc(-c2cc(-c3ccc(Cl)cc3)c3c(n2)-c2c(O)cccc2C3)cc1` , system DNA topoisomerase 1 (Homo sapiens) (UniProt P11387), measured inhibition is 0

---

Test system: DU-145
Assay: Antiproliferative activity against human DU145 cells measured after 72 hrs by EZ-Cytox assay
Format: functional, cell-based
Settings: DU-145, 72 h
pIC50: −log10 of the molar value.
The label depends only on pIC50: y if it is at least 6, n if it is smaller.

Answered cases to consult:
[[record]]
structure_smiles_string = "Oc1ccc2c(c1)-c1nc(-c3ccccc3O)cc(-c3ccccc3Cl)c1C2"
discrete_label = "n"

[[record]]
structure_smiles_string = "Oc1cccc(-c2cc(-c3ccc(C(F)(F)F)cc3)nc3c2Cc2cc(O)ccc2-3)c1"
discrete_label = "n"

[[record]]
structure_smiles_string = "Oc1ccc(-c2cc(-c3ccccc3F)nc3c2Cc2ccc(O)cc2-3)cc1"
discrete_label = "n"

[[record]]
structure_smiles_string = "Oc1ccccc1-c1cc(-c2cccc(Cl)c2)nc2c1Cc1cccc(O)c1-2"
discrete_label = "y"

[[record]]
structure_smiles_string = "Oc1cccc(-c2cc(-c3ccccc3)c3c(n2)-c2c(O)cccc2C3)c1"
discrete_label = "y"


Ask: Check this compound for pIC50 at or above 6: `Oc1cccc(-c2cc(-c3cccc(C(F)(F)F)c3)nc3c2Cc2cccc(O)c2-3)c1`
Result: n

Ask: Check this compound for pIC50 at or above 6: `Oc1cccc(-c2cc(-c3cccc(F)c3)nc3c2Cc2ccc(O)cc2-3)c1`
Result: n

---

Test system: HeLa
Experiment: Antiproliferative activity against human HeLa cells measured after 72 hrs by EZ-Cytox assay
Format: functional, cell-based
Recorded Endpoint: pIC50
Lab note — pIC50 values are minus log10 of concentrations in M.

A selection of reference data follows.
[[record]]
structure_smiles_string = "Oc1cccc(-c2cc(-c3ccccc3F)nc3c2Cc2cccc(O)c2-3)c1"
target_of_assay = "HeLa"
recorded_endpoint = "pIC50"
observed = 4.92

[[record]]
structure_smiles_string = "Oc1ccc(-c2cc(-c3ccc(Cl)cc3)nc3c2Cc2c(O)cccc2-3)cc1"
target_of_assay = "HeLa"
recorded_endpoint = "pIC50"
observed = 5.39

[[record]]
structure_smiles_string = "Oc1cccc(-c2cc(-c3cccc(C(F)(F)F)c3)nc3c2Cc2cc(O)ccc2-3)c1"
target_of_assay = "HeLa"
recorded_endpoint = "pIC50"
observed = 5.69


// switching to the query compound
Let me check: `Oc1ccc(-c2cc(-c3ccccc3Cl)nc3c2Cc2ccc(O)cc2-3)cc1` , system HeLa, measured pIC50 is 5.49
